These measurements were taken from patent US6861428B2.

metric: melting point

>>> df
                                   compound                  result
0  COc1ccc(-c2cc(CN3CCNCC3)c(=O)n(CC(C)C)n2)cc1Cl.Cl.Cl       203.6 to 204.5 °C
1  COc1ccc(-c2cc(CN3CCN(C)CC3)c(=O)n(CC(C)C)n2)cc1Cl.Cl.Cl       235.8 to 236.7 °C
2  CC(C)Cn1nc(-c2ccc(F)c(F)c2)cc(CN2CCNCC2)c1=O.Cl.Cl         182.5 to 186 °C
3  Cc1cc(-c2cc(CN3CCN(C)CC3)c(=O)n(CC=Cc3ccccc3)n2)ccc1F.Cl.Cl       236.1 to 237.1 °C
4  COc1ccc(-c2cc(CN(C)C)c(=O)n(Cc3ccc(F)c(F)c3)n2)cc1F [Example 208]       129.9 to 130.4 °C
5  Cc1ccc(-c2cc(CN3CCNCC3)c(=O)n(CC(C)C)n2)cc1F.Cl.Cl  186.2 to 195 °C (dec.)
6  Cc1cc(-c2cc(CN3CCN(C)CC3)c(=O)n(Cc3ccccc3Cl)n2)ccc1F.Cl.Cl    191 to 202 °C (dec.)
7  COc1ccc(-c2cc(CN)c(=O)n(CCCc3ccc(F)cc3)n2)cc1F [Example 200]             82 to 84 °C
8  Cc1cc(-c2cc(CN3CCN(C)CC3)c(=O)n(Cc3ccc(Cl)cc3)n2)ccc1F [Example 222]       133.3 to 133.8 °C
